Data origin: the kinase profiling compilation of Christmann-Franck et al. (2016)

target_entity: RPS6KA3 KD1 KD2 (human)
assay_procedure: radiometric filter-binding kinase assay, Kinase HotSpot
condition_summary: compound 0.5 µM; ATP 10 µM
measurement_name: residual activity (%)

{"columns": ["compound", "target_entity", "unit_tag", "measured_number"],
 "data": [
  ["COc1cc2ncnc(Nc3ccc(O)c(Br)c3)c2cc1OC", "RPS6KA3 KD1 KD2 (human)", "%", 69.4],
  ["COc1cc2c(N3CCN(C(=O)Nc4ccc(OC(C)C)cc4)CC3)ncnc2cc1OCCCN1CCCCC1", "RPS6KA3 KD1 KD2 (human)", "%", 96.6],
  ["O=C1NC(=O)c2cc(Nc3ccc(F)cc3)c(Nc3ccc(F)cc3)cc21", "RPS6KA3 KD1 KD2 (human)", "%", 118],
  ["O=c1c(-c2ccc(F)cc2)c(-c2ccncc2)[nH]n1-c1ccc(Cl)cc1", "RPS6KA3 KD1 KD2 (human)", "%", 94.3],
  ["Cc1cc(Nc2nc(-c3ccccc3)nc3ccccc23)n[nH]1", "RPS6KA3 KD1 KD2 (human)", "%", 66.1]
]}
